Entries and their Activity values follow.
- ASSAY SYSTEM: C-C chemokine receptor type 5 (Homo sapiens, UniProt P51681)
- Sequence (P51681 whole entry, looked up, the tested form may be a part): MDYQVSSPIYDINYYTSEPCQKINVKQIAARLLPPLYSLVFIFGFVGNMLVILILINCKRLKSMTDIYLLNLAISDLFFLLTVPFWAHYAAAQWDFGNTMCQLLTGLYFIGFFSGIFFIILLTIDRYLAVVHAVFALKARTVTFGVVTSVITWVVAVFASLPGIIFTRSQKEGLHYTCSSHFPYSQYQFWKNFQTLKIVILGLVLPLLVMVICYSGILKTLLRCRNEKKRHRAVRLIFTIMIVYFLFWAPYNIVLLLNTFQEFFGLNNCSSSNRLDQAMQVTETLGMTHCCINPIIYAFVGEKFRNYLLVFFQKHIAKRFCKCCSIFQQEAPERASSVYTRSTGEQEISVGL
- ASSAY COMMENT: Antagonist activity at human recombinant CCR5 expressed in human HeLa-P4 cells assessed as inhibition of human HeLa-P4 cells binding to HIV1 gp160 expressing CHO cells at 10 uM by cell-cell fusion assay
- Format: cell-based
- Parameters: scale not given: the % may be the effect or the level left
API: value field is a number in %; no unit string.

[[record]]
molecule = "Cc1cccc(C)c1C(=O)N1CCC(N2CCCC(N(Cc3ccccc3)C(=O)C3CC3)C2)CC1 (racemic)"
observed_measurement = 19

[[record]]
molecule = "Cc1ccnc(C)c1C(=O)N1CCN(C2C[C@H]3CC[C@@H](C2)N3C(c2ccccc2)c2ccccc2)CC1 (mixture of isomers)"
observed_measurement = 25

[[record]]
molecule = "Cc1cccc(C)c1C(=O)N1CCC(N2CCCC(CC(NC(=O)C3CCC3)c3ccccc3)C2)CC1 (mixture of isomers)"
observed_measurement = 20


Field: next molecule
Given the molecule `Cc1ccnc(C)c1C(=O)N1CCN(CCC(c2ccccc2)c2ccccc2)CC1` , write its reported Activity.
0
